TARGET_UNDER_TEST: Human GLP-1 receptor (Homo sapiens)
Sequence (P43220 24-463): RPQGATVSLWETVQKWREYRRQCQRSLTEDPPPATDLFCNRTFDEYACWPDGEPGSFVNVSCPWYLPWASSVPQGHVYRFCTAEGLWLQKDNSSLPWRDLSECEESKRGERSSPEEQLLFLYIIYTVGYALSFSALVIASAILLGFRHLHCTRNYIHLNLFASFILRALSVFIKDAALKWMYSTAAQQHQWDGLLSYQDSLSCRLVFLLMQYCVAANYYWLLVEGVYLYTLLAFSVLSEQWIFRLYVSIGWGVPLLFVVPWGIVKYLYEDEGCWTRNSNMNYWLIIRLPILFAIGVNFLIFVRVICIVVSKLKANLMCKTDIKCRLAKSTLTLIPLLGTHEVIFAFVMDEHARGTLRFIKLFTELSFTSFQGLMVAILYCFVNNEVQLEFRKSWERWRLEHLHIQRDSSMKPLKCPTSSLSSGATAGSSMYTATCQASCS
MEASUREMENT_PROTOCOL: Measurement of GLP-1 receptor agonist activity (cAMP assay in hGLP-1R/CHO-K1 cells)
APPLIED_CONDITIONS: cAMP increase in hGLP-1R/CHO-K1 cells, 1 hour at 37° C., with Forskolin
Experimental: Human GLP-1 receptor stably expressing cells (hGLP-1R/CHO-K1 cells) are cultured in an α-MEM medium (Sigma) containing 10% FBS (Hyclone), 2% GlutaMAX (Gibco), 1% G418 (Nacalai Tesque), and 1% Penicillin-Streptomycin Mixed Solution (Sigma) at 37° C. under 5% CO2 conditions, and recovered by treating a 10 fold diluted 5.0 g/1-trypsin/5.3 mmol/1-EDTA solution (Nacalai Tesque) and cryopreserved. […]
Please note: EC50 exactly at 2000 nM is not met. Only values below 2000 nM get met.

Completed entries (count: 4):
MOLECULE: CC(NCc1nc2ccc(C(=O)O)cc2n1C[C@@H]1CCO1)c1nc(OCc2ccc(Cl)cc2F)c(C(F)(F)F)cc1F (mixture of isomers)
TARGET_UNDER_TEST: Human GLP-1 receptor (Homo sapiens)
ANSWER_LABEL: met
//
MOLECULE: CC(NCc1nc2ccc(C(=O)O)cc2n1C[C@@H]1CCO1)c1ccc(C(F)(F)F)c(OCc2ccc(Cl)cc2F)n1 (mixture of isomers)
TARGET_UNDER_TEST: Human GLP-1 receptor (Homo sapiens)
ANSWER_LABEL: met
//
MOLECULE: CN(CCc1cnc(OCc2ccc(Cl)cc2F)c(C(F)(F)F)c1)Cc1nc2ccc(C(=O)O)cc2n1C[C@@H]1CCO1
TARGET_UNDER_TEST: Human GLP-1 receptor (Homo sapiens)
ANSWER_LABEL: not met
//
MOLECULE: CC(c1ccc(C(F)(F)F)c(OCc2ccc(Cl)cc2F)n1)N(C)Cc1nc2ccc(C(=O)O)cc2n1C[C@@H]1CCO1 (some centres unmarked)
TARGET_UNDER_TEST: Human GLP-1 receptor (Homo sapiens)
ANSWER_LABEL: met

Next:
Data request: Strictly below 2000 nM: is that where EC50 of O=C(O)c1ccc2nc(CNCc3ccc(C(F)(F)F)c(OCc4ccc(Cl)cc4F)n3)n(C[C@@H]3CCO3)c2c1 sits?
Data returned: not met

Data provenance is patent US20260098031A1.
